Target: mPGES-1 (Mus musculus, UniProt Q9JM51)
Construct: endogenous in cells; 100,000 g microsomal pellet
Sequence (Q9JM51 1-153): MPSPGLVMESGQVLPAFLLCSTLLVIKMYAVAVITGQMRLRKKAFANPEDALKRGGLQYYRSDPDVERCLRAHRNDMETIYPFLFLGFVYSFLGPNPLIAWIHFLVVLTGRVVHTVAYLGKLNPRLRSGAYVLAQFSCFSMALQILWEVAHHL
Test: Microsomal PGES activity: conversion of PGH2 to PGE2 by microsomal fractions of LPS-treated RAW 264.7 cells
Conditions: microsomal fraction of RAW 264.7 cells treated 24 hours with LPS 1 μg/mL; conversion of PGH2 to PGE2; read-out: IC50 (inhibition of mPGES-1 enzyme activity)
Counter-ions that a name gives are not always drawn.
measured.quantity: IC50 (nM)

// solved cases for IC50 follow
CC1=C(C)C(=O)C(CC[C@](C)(O)C(=O)N2CCNCC2)=C(C)C1=O [I-IVb-A-HCl]	1020
CC1=C(C)C(=O)C(CC[C@](C)(O)C(=O)N2CCC(NC(=O)[C@H](C)N)CC2)=C(C)C1=O [I-IVb-AB-HCl]	238
CC1=C(C)C(=O)C(CC[C@](C)(O)C(=O)Nc2ccc(CN)cc2)=C(C)C1=O [I-IVb-AJ-HCl]	1050
CC1=C(C)C(=O)C(CC[C@](C)(O)C(=O)N[C@H]2CC[C@H](N)CC2)=C(C)C1=O	18
CC1=C(C)C(=O)C(CCC(C)(O)C(=O)NCCN(C)C)=C(C)C1=O (centres unmarked)	1120
CC1=C(C)C(=O)C(CC[C@](C)(O)C(=O)N[C@H]2CN3CCC2CC3)=C(C)C1=O [I-IVb-AI-HCl]	726

a. CC1=C(C)C(=O)C(CCC(C)(O)C(=O)N[C@@H](CCCN)C(=O)O)=C(C)C1=O (some centres unmarked)
b. CC1=C(C)C(=O)C(CC[C@](C)(O)C(=O)N[C@@H]2CCCNC2)=C(C)C1=O
Task item: Parameter check: reported IC50 is higher for which label, a or b ? Which one? Tell me its label.
Reply: b
(b: 458 nM, a: 10.4 nM)

Hello, the source for this data is patent US11672787B2, in case you need it.
